- Test system: AMPA-R
- protocol_text: [3H]AMPA radioligand binding assay on rat brain synaptic membranes;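 further: competition binding in which test compounds at rising concentrations displace [3H]AMPA from AMPA-R on rat brain synaptic membranes, with reduced bound radioligand as read-out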
- experimental_context: Experiment #2, 1 uM
measure_name: % Inhibition @ 1 uM (%)

[
  {
    "chain_sequence": "ASGSCMAFCFUFUMUSAS [RG-NG-1015]",
    "measure_name": "% Inhibition @ 1 uM",
    "recorded_number": 11
  }
]

a: AMAMGLCLALCLUMTLUCM [RG-NG-1030]
b: ASGSCMALCFUFUMUSCS [RG-NG-1026]
c: ASGSCSALCFUFUMUSCS [RG-NG-1028]
// query Hello, I need these entries ordered by % Inhibition @ 1 uM, highest reading first. Thanks! Please respond by ranking the labels in the order requested.
// result a, c, b
